Reference source for all entries: PubChem BioAssay (NCI)

Parameter TGI: see the listing below.
- Tested on: NCI/ADR-RES ovarian
- experiment: NCI tumour cell line growth inhibition, 48 h

Below, each entry is followed by its recorded TGI result.
INSERT INTO measurements (compound, measurement_name, value) VALUES
  ('CC(C)=CCNc1ncnc2c1ncn2CCC#N', 'TGI', '> 100 µM'),
  ('O=C1/C(=C/c2ccc(Cl)cc2)CSc2ccccc21', 'TGI', '34.5 µM'),
  ('CC1=C[C@H]2c3c(c(O)c(O)c4oc(-c5ccccc5)cc(=O)c34)[C@H](c3cc(O)c(O)c4oc(-c5ccccc5)cc(=O)c34)[C@H]2C(C)(C)C1', 'TGI', '25.3 µM'),
  ('O=S(=O)(Nc1cc(Sc2cccc3cccnc23)c(O)c2ccccc12)c1ccccc1', 'TGI', '11 µM'),
  ('Cc1cc(C(C)(C)CC(C)(C)C)ccc1OCCOCC[N+](C)(C)Cc1ccccc1', 'TGI', '51 µM');

Enquiry: Given "S=C(Nc1ccc2c(c1)oc1ccccc12)c1cccnc1" , state its recorded TGI.
Return: > 100 µM

Enquiry: Query "O=C(/C=C\c1ccc(NCc2ccc(C(=O)O)cc2)cc1)CCl" next
Return: 39.6 µM

Enquiry: Query "CCOC(=O)NC(Nc1ccc([N+](=O)[O-])cc1)(C(F)(F)F)C(F)(F)F" next
Return: > 100 µM

Enquiry: Query "O=c1cc(NC2CCN(CCCc3ccccc3)CC2)c2cc(Cl)ccc2o1" next
Return: 30.4 µM

Enquiry: Query "N#Cc1c(Cl)cc(Cl)n2c1nc1ccccc12" next
Return: 40.5 µM

Enquiry: Query COc1ccc2cc(C(C)C(=O)N3CCOC3=O)ccc2c1 (stereo not given) next
Return: > 100 µM

Enquiry: Query "CCOC(=O)NC(Nc1cccc(C(F)(F)F)c1)(C(F)(F)F)C(F)(F)F" next
Return: > 100 µM

Enquiry: Query C=CC[C@]12C=C(OC)[C@@H](O)[C@](OC)(C(c3cc(OC)c4c(c3)OCO4)[C@H]1C)[C@H]2OC(C)=O (stereo not given in full) next
Return: > 100 µM

----------
- Tested on: SNB-75 CNS
- experiment: NCI tumour cell line growth inhibition, 48 h
measurement_name: log10 of TGI (log10 of the value in µM)
Units before log transform: µM; reported quantity: TGI; transform: log10.

Below, each entry is followed by its recorded log10 of TGI result.
INSERT INTO measurements (molecule, measurement_name, value) VALUES
  ('O=C(c1ccccc1)C1OC12C(=O)Nc1ccccc12 (stereo not given)', 'log10 of TGI', 1.63),
  ('O=C(/C=C\c1ccc(NCc2ccc(C(=O)O)cc2)cc1)CCl', 'log10 of TGI', 1.42),
  ('Cn1c2ccccc2c(=NNc2cccc(C(=O)O)c2)c2ccccc21', 'log10 of TGI', 1.73),
  ('COc1ccc(CCN2COc3c([C@@H](C)CCC=C(C)C)ccc(C)c3C2)cc1OC', 'log10 of TGI', 1.55),
  ('O=[N+]([O-])/C(C(Cl)=C(Cl)Cl)=C(\N1CCCCC1)n1cncn1', 'log10 of TGI', 1.69),
  ('COc1cccc2c(=O)c3c(sc12)c(N1CCNCC1)nc1ccccc13', 'log10 of TGI', 0.47),
  ('O=c1cc(NC2CCN(CCCc3ccccc3)CC2)c2cc(Cl)ccc2o1', 'log10 of TGI', 1.32),
  ('COc1cc2[nH]c(C(=O)c3cc(OC)c(OC)c(OC)c3)c(N)c2cc1C#CC1CC1', 'log10 of TGI', 0.60),
  ('O=C1C(=Cc2ccccc2O)N=C(c2ccccc2)N1n1c(-c2ccccc2)nc2ccccc2c1=O', 'log10 of TGI', 1.94),
  ('COc1ccc(/C=C/C(=O)C(CC2CCC2)C(=O)/C=C/c2ccc(OC)c(OC)c2)cc1OC', 'log10 of TGI', 0.44);

Enquiry: Given "C1C[OH+]CC[OH+]CC[OH+]CC[OH+]CC[OH+]1.[Cl-].[V]" , state its recorded log10 of TGI.
Return: 1.61

Enquiry: Query CC12CCC(O)CC1CCC1C2CCC2(C)C(C(=O)CC(O)C(F)(F)F)CCC12 (stereo not given) next
Return: 1.91

Enquiry: Query "ClCc1cccc(Cn2cnc3nc(Cl)nc(Cl)c32)c1" next
Return: 0.34
